Data credit: paper PMC9301698

The following compounds are listed with their measured viability at 24 h, 50 μg/mL values.
# run_description: MTT cytotoxicity assay in mammalian cells
# Type: cell-based
# measurement_setup: mouse, RAW 264.7 cells
observable: viability at 24 h, 50 μg/mL (%)

| compound | assay_value |
| --- | --- |
| COc1cccc2c1C(=O)c1c(O)c3c(c(O)c1C2=O)C[C@@](O)(C(=O)CO)C[C@@H]3O[C@H]1C[C@H](N)[C@H](O)[C@H](C)O1 [doxorubicin, reference compound] | 4.44 |
| CC(C)=CCc1c2c(c3occ(-c4ccc(O)cc4)c(=O)c3c1O)CC(C(C)(C)O)O2 (stereo not drawn) [Compound 16, senegalensin] | 6 |
| C=C(C)C(O)Cc1c(O)c(CC=C(C)C)c2occ(-c3ccc(O)cc3)c(=O)c2c1O (stereo not drawn) [Compound 13, isoerysenegalensein E] | 47.3 |
